Below, each entry is listed alongside its reported Fold drop in potency vs. 2-chloropyridine analog.
# Test system: human β3-AR (Homo sapiens, UniProt P13945)
# Construct: expressed in transfected cells; host or cells: CHO (Chinese hamster ovary) cells, stably transfected
# Sequence (P13945 whole entry): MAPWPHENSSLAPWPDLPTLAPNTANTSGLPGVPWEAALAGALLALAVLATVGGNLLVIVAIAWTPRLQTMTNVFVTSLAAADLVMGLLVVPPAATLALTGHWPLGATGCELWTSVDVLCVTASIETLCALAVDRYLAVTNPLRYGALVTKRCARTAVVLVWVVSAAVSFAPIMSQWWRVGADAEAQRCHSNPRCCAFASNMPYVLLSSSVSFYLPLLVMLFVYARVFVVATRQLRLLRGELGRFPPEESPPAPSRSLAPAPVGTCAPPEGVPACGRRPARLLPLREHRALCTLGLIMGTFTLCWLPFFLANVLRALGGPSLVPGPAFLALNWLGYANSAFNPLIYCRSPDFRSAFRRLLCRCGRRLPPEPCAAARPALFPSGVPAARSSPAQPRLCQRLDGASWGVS
# Test name: cAMP functional agonist assay (LANCE TR-FRET) in CHO cells expressing cloned human β3-AR
# Format: cell-based
# Test context: EC50 of comparative example divided by EC50 of corresponding 2-chloropyridine compound
The answer is to be given in fold; state only the numeric part.

Smiles representation | Reported value
Cc1cc(CN(C)C(=O)c2ccc(C[C@@H]3CC[C@H]([C@H](O)c4ccc(F)nc4)N3)cc2)n[nH]1 | 14.4

Sure, the documented Fold drop in potency vs. 2-chloropyridine analog for CN(Cc1nc2ccccc2c(=O)n1C)C(=O)c1ccc(C[C@@H]2CC[C@H]([C@H](O)c3ccccc3)N2)cc1 is 2.6

Sure, the documented Fold drop in potency vs. 2-chloropyridine analog for Cc1nnc(-c2cncc(CN(C)C(=O)c3ccc(C[C@@H]4CC[C@H]([C@H](O)c5ccccc5)N4)cc3)c2)o1 is 4.3

Entry source: patent US20160235727A1
